Biological target: ERRα ligand binding domain (ERRα-LBD) (Homo sapiens (Human), UniProt P11474)
Sequence (P11474 193-421): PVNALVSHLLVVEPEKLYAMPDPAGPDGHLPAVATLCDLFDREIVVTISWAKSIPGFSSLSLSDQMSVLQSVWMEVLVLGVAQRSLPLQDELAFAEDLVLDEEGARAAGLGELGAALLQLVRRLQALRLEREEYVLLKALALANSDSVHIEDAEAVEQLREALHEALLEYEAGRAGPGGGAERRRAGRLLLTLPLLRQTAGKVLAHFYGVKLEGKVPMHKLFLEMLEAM
Experiment: ERRα AlphaScreen Assay
Assay type: biochemical
Settings: disruption of binding of ERRα-LBD protein to biotin-PGC1α-3 co-activator peptide; read-out: mean pIC50 (converted)
# reported IC50; entries follow

COc1cc(C2CC(=O)Nc3n[nH]c(C)c32)ccc1OCc1ccccc1C(F)(F)F (centres unmarked) [Example 82]
100 to 1000 nM

*Q* Quote IC50 reported for COc1cc(C2CC(=O)Nc3n[nH]cc32)ccc1OCc1cccc2c1OC(C)(C)C2 (centres unmarked) [Example 46] please.
*A* 100 to 1000 nM

*Q* Given the compound O=C1CC(c2ccc(OCc3ccccc3C(F)(F)F)c(OC(F)(F)F)c2)c2c[nH]nc2N1 (centres unmarked) [Example 69] , write its reported IC50.
*A* 10 to 100 nM

*Q* Tell me IC50 reported for COc1cc(C2CC(=O)Nc3ncsc32)ccc1OCc1ccccc1C(F)(F)F (centres unmarked) [Example 88]
*A* 100 to 1000 nM

*Q* Quote IC50 reported for COc1cc(C2CC(=O)Nc3n[nH]cc32)ccc1OCc1ccc(C=O)cc1C(F)(F)F (centres unmarked) [Example 159] please.
*A* 10 to 100 nM

*Q* Supply recorded IC50 for COc1cc(C2CC(=O)Nc3n[nH]cc32)ccc1OCc1ccc(CC(=O)O)cc1C(F)(F)F (centres unmarked) [Example 151] here.
*A* 100 to 1000 nM

*Q* Item COc1cc(C2CC(=O)Nc3n[nH]cc32)ccc1OCc1cccc(OC)c1OC (centres unmarked) [Example 39] : provide IC50
*A* 100 to 1000 nM

*Q* Report measured IC50; entry is COc1cc(C2CC(=O)Nc3n[nH]cc32)ccc1OCc1cc2c(cc1Br)OCO2 (centres unmarked) [Example 43]
*A* 10 to 100 nM
